Recorded IC50 by entry
- tgt: T1, PCSK9 protein inserted with biotin receiving peptide BP15 and His-tag: PCSK9-BP15-His6 (human, UniProt Q8NBP7 153-692; A8T644 31-152, biotin on the BP15 biotin receiving peptide (labeled during the expression))
- T1 construct: also called WT PCSK9; PCSK9 WT
- procedure-summary: competition ELISA, LDLR-FC coated, biotin PCSK9 + antibody
Respond with a number, then the unit of measure.

Examples from the recorded data:
binder="h011-3058 (antibody, V domains shown) VH: QVQLVQSGAEVKKPGASVKVSCKASGYTFTGYTIHWVRQAPGQGLEWMGEINPSGTYTKFNQKFKDRVTMTRDTSISTAYMELSRLRSDDTAVYYCARERIYSNYWFFDVWGQGTTVTVSS VL: DIVMTQSPSSLSASVGDRVTITCKASQNVYTAVAWYQQKPGKSPKLLIYSASNRYTGVPSRFSGSGSGTDFTLTISSLQPEDFATYFCQQYSSYPYTFGGGTKVEIK" result="0.542 µg/mL"
binder="h011-3073 (antibody, V domains shown) VH: QVQLVQSGAEVKKPGASVKVSCKASGYTFTGYTIHWVRQAPGQGLEWMGYINPSSTYTKFNQKFKDRVTMTRDTSISTAYMELSRLRSDDTAVYYCARENIFSNYWFFDRWGQGTTVTVSS VL: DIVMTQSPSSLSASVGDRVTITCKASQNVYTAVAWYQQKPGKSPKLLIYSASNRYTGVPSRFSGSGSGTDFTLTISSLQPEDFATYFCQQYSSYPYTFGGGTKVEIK" result="0.604 µg/mL"
binder="h011-3174 (antibody, V domains shown) VH: QVQLVQSGAEVKKPGASVKVSCKASGYTFTGYTIHWVRQAPGQGLEWMGYINPSSTYTKFNQKFKDRVTMTRDTSISTAYMELSRLRSDDTAVYYCARERIFSNYWFFDVWGQGTTVTVSS VL: DIVMTQSPSSLSASVGDRVTITCKASQNVYTAVAWYQQKPGKSPKLLIYQASNRYTGVPSRFSGSGSGTDFTLTISSLQPEDFATYFCQQYSSYPYTFGGGTKVEIK" result="1.67 µg/mL"
binder="h011-3111 (antibody, V domains shown) VH: QVQLVQSGAEVKKPGASVKVSCKASGYTFTGYTIHWVRQAPGQGLEWMGYINPSSTYTKFNQKFKDRVTMTRDTSISTAYMELSRLRSDDTAVYYCARERIYSNYWFFDVWGQGTTVTVSS VL: DIVMTQSPSSLSASVGDRVTITCKASQNVYWEVDWYQQKPGKSPKLLIYSASNRYTGVPSRFSGSGSGTDFTLTISSLQPEDFATYFCQQYSSYPYTFGGGTKVEIK" result="1.22 µg/mL"
binder="h011-3050 (antibody, V domains shown) VH: QVQLVQSGAEVKKPGASVKVSCKASGYTFTGYTIHWVRQAPGQGLEWMGEILPSSTYTKFNQKFKDRVTMTRDTSISTAYMELSRLRSDDTAVYYCARERIYSNYWFFDVWGQGTTVTVSS VL: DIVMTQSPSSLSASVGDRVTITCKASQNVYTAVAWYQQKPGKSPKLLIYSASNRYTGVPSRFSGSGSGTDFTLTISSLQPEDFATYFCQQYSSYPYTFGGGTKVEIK" result="0.598 µg/mL"
binder="h011-3065 (antibody, V domains shown) VH: QVQLVQSGAEVKKPGASVKVSCKASGYTFTGYDIHWVRQAPGQGLEWMGYINPSSTYTKFNQKFKDRVTMTRDTSISTAYMELSRLRSDDTAVYYCARERIYSNYWFFDVWGQGTTVTVSS VL: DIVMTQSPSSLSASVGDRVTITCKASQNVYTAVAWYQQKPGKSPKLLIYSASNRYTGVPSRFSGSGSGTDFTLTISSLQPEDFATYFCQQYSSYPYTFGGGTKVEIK" result="0.73 µg/mL"

Now consider a different binder.
stdin: Supply IC50 value. Item: humanized antibody h011-3 (antibody, V domains shown, h011_VH.1 with h011_VL.1B) VH: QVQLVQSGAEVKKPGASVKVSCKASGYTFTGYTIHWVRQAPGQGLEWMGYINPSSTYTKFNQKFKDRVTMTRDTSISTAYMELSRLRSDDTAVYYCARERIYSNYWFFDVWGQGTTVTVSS VL: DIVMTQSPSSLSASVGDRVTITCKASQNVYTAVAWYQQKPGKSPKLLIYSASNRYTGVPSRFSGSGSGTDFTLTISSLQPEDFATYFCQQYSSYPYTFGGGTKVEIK
stdout: 0.681 µg/mL
